I'd be grateful if you could share measured fold change (FC) for these entries.
tested on: Escherichia coli; test: Ratio of imipenim MIC to imipenim MIC in presence of compound for Escherichia coli BL21(DE3) cells harboring IMP-7 at 128 mg/l by broth microdilution assay; type: functional
Give the figure by itself; no unit, no explanation.

Lab note: CC(S)C(=O)NCC(=O)O (centres undefined) gave fold change (FC) of 2

Lab note: `CC(=O)N[C@@H](CS)C(=O)O` gave fold change (FC) of 1

Lab note: O=C(O)CNC(=O)C(CS)Cc1ccccc1 (racemic) gave fold change (FC) of 8

Lab note: CC(CS)C(=O)N1CCCC1C(=O)O (racemic) gave fold change (FC) of 8

----------
assay: Binding affinity to hexahistidine-tagged IMP-7 (unknown origin) expressed in Escherichia coli BL21 (DE3) cells assessed as change in melting temperature at 500 uM by thermal shift assay
measured quantity: ΔTm (°C)
Entry rule: numbers only, all in °C.

Lab note: O=C(O)CNC(=O)C(CS)Cc1ccccc1 (racemic) gave ΔTm of 3.6

Lab note: CC(CS)C(=O)N1CCCC1C(=O)O (racemic) gave ΔTm of 3.4

Lab note: `CC(=O)N[C@@H](CS)C(=O)O` gave ΔTm of 1.1

Lab note: CC(S)C(=O)NCC(=O)O (centres undefined) gave ΔTm of 1.8

----------
I'd be grateful if you could share measured fold change (FC) for these entries.
system: Pseudomonas aeruginosa; experiment: Ratio of imipenim MIC to imipenim MIC in presence of compound for Pseudomonas aeruginosa T2226 expressing IMP-7 at 128 mg/l by broth microdilution assay; format: functional

Lab note: CC(S)C(=O)NCC(=O)O (centres undefined) [TIOPRONIN] gave fold change (FC) of 32

Lab note: CC(=O)N[C@@H](CS)C(=O)O [ACETYLCYSTEINE] gave fold change (FC) of 4

Lab note: O=C(O)CNC(=O)C(CS)Cc1ccccc1 (racemic) [THIORPHAN] gave fold change (FC) of 2

Lab note: CC(CS)C(=O)N1CCCC1C(=O)O (racemic) gave fold change (FC) of 1
